# test-details: drug combination growth inhibition, ovarian cancer – cell-based, oncology-focused library, rucaparib conditional, profiling panel (AID 1508598)
# condition-details: patient-derived ovarian cancer cells, CellTiter-Glo viability, 144 h; at 0.00488 µM; OCI-P5x cells; with rucaparib 20 µM; 100% = cells with rucaparib alone
Calls of active or inactive are those of the source.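 Rule for the calls: active = normalized viability below 100% at a tested concentration; inactive = the rest.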
Possible outcomes: active, inactive

INSERT INTO assay_data (compound, answer_label) VALUES
  ('Cc1ccc(NC(=O)c2ccc(CN3CCN(C)CC3)cc2)cc1Nc1nc(-c2cccnc2)cs1', 'inactive'),
  ('CCC(C)(C)C(=O)O[C@@H]1C[C@@H](C)C=C2C=C[C@H](C)[C@@H](CC[C@@H]3C[C@@H](O)CC(=O)O3)[C@H]21', 'active'),
  ('CCOC(=O)c1cnc2ccc(-c3cncc(NS(=O)(=O)c4ccccc4)c3)cn12', 'inactive'),
  ('CC(C)CC(CC(=O)NO)C(=O)N[C@@H](Cc1ccc2ccccc2c1)C(=O)N[C@@H](C)C(=O)NCCN (some centres undefined)', 'active');

====

Below: a set of entries, each annotated with reported inhibition.
# Tested on: Hepatitis C virus NS3 helicase
# test-details: blockers of NS3h binding to ssDNA – biochemical, fluorescence polarization, LOPAC1280 library, primary screen (AID 687035)
# condition-details: Purified HCV NS3 helicase, Cy5-dT15 ssDNA binding fluorescence polarization; stronger effect = higher value; concentration not given here
property-name: inhibition (%)

INSERT INTO assay_data (compound, observed) VALUES
  ('c1cnc2c(c1)ccc1cccnc12', -3),
  ('Fc1ccc(CN(C2=NCCN2)c2c(Cl)cccc2Cl)cc1', 1),
  ('CC(=O)N[C@@H](Cc1c[nH]c2ccccc12)C(=O)OCc1cc(C(F)(F)F)cc(C(F)(F)F)c1', -3),
  ('O=C1C2C=CC=CC2=NC(=S)N1CCN1CCC(=C(c2ccc(F)cc2)c2ccc(F)cc2)CC1 (configuration not stated)', 1),
  ('COc1cc(C(O)C(=O)O)ccc1O (configuration not stated)', -2),
  ('CNc1ncnc2c1ncn2[C@H]1C[C@H](OP(=O)(O)O)[C@@H](COP(=O)(O)O)O1', -4),
  ('N[C@@H](Cc1ccc(O)c(I)c1)C(=O)O', -4),
  ('CC(=O)N[C@H](C(=O)O)C(C)(C)SN=O', -4),
  ('CCCCCCCCCCCCCCC[C@H](O)[C@H](N)CO', 4),
  ('Clc1nccc2c1ccc1ccccc12', -2),
  ('Nc1ncnc2c1nc(Sc1ccc(Cl)cc1)n2C1OC2COP(=O)(O)O[C@@H]2[C@@H]1O (some centres not stated)', -8),
  ('Fc1cccc(/C=N\N=C/c2cccc(F)c2)c1', -2);

====

# test-details: MELAS cybrid and Rieske KO viability enhancers – cell-based, MELAS cybrids, Rieske KO mouse fibroblasts, CellTiter-Glo, primary screen (AID 1508586);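 note: z relative to plate mean and SD of compound and empty wells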
# condition-details: Rieske KO mouse fibroblast survival, low glucose, CellTiter-Glo 72 h
property-name: z-score

INSERT INTO assay_data (molecule, observed) VALUES
  ('CN(C)C(=O)C(O)C(Cc1ccccc1)NC(=O)c1cc2cc(Cl)ccc2[nH]1 (centres undefined)', 0.715),
  ('CS(=O)(=O)CCNCc1coc(-c2ccc3ncnc(Nc4ccc(OCc5ccccc5)cc4)c3c2)c1', -0.493),
  ('CN1CCN(Cc2ccc3nonc3c2)CC1CCO (centres undefined)', -0.13),
  ('CC(C)(C)C(=O)Nc1ccc2c(c1)C(=O)C(=O)c1ccccc1-2', -7.92);
